Value source: the supplement of paper PMC13380429

# cell viability per entry
- Tested on: Calu-3
- assay explanation: cell viability relative to DMSO; higher = less toxic
- experimental conditions: 72 h; 100 nM
// units = %; emit number, no label

Previously resolved entries follow.
[[record]]
molecule = "CC(=O)Nc1ccc(C(=O)NC(C)(C)C)cc1"
numeric_readout = 108

[[record]]
molecule = "C=CCNC(=O)c1cc([N+](=O)[O-])cc2c(=O)[nH]c(Nc3ccc(Cl)c(Cl)c3)nc12"
numeric_readout = 103

[[record]]
molecule = "CCN(CCCOc1ccc2c(Nc3cc(CC(=O)Nc4cccc(F)c4)[nH]n3)ncnc2c1)CCOP(=O)(O)O"
numeric_readout = 102

[[record]]
molecule = "O=C(O)COc1cccc(-c2ocnc2-c2nc(-c3ccccc3)c(-c3ccccc3)o2)c1"
numeric_readout = 95

[[record]]
molecule = "CNC1CCCN(c2c(F)cc3c(=O)c(C(=O)O)cn(C4CC4)c3c2OC)C1 (stereo not drawn)"
numeric_readout = 101


Reported cell viability, molecule "CC1(C)CC[C@]2(C(=O)O)CC[C@]3(C)[C@H](C(=O)C=C4[C@@]5(C)C=C(C#N)C(=O)C(C)(C)[C@@H]5CC[C@]43C)[C@@H]2C1" : ____
102

What about "c1cc(Cc2cnc[nH]2)ccn1" ?
94.6

What about "Nc1ccn([C@H]2C[C@H](O)[C@@H](CO)O2)c(=O)n1" ?
91.9

What about "COC(=O)/C=C/c1cccc(N(Cc2ccc(-c3ccc(N(C)C)cc3)cc2)C(=O)C2CCCCC2)c1" ?
104

What about "CO/N=C(\C(=O)N[C@@H]1C(=O)N2C(C(=O)OCOC(=O)C(C)(C)C)=C(C)CS[C@H]12)c1csc(N)n1" ?
102

What about NCC1CC(=O)N(Cc2ccccc2)C1 (stereo not drawn) ?
93.1

What about "O=c1c2ccccc2oc2ccccc12" ?
103

What about "CO[C@H]1C[C@H](O[C@H]2CC[C@@]3(C)[C@H](CC[C@@H]4[C@@H]3CC[C@]3(C)[C@@H](C5=CC(=O)OC5)[C@@H](OC(C)=O)C[C@]43O)C2)O[C@@H](C)[C@@H]1O" ?
31.6

What about "O=C(CCCCCN1C(=O)c2cccc3cccc(c23)C1=O)NO" ?
102

What about "CC(=O)N[C@@H](CS)C(=O)O" ?
93

What about "COc1ccc2c(c1)c(C1=C(c3c[nH]c4ccccc34)C(=O)NC1=O)cn2CCCN(C)C" ?
99

What about "COc1ccc(-c2ccc3c(N4CCOC[C@@H]4C)nc(N4CCOC[C@@H]4C)nc3n2)cc1CO" ?
37.6

What about "CCc1ccccc1OC[C@@H](O)CN[C@H]1CCCc2ccccc21" ?
99.7
